tested on: Vero E6; test: cell viability relative to DMSO; higher = less toxic; conditions: 72 h; 100 nM
reportedMetric: cell viability (%)
// return numeric value only (unit: %, not printed)

# count of solved cases: 6
compound | number
CC(=O)OC/C=C(C)/C=C/C=C(C)/C=C/C1=C(C)CCCC1(C)C [retinyl-acetate] | 102
Cc1ccc2c(c1)[C@]13CCCC[C@@H]1[C@H](C2)N(C)CC3 | 104
CC(=O)O[C@H]1C(=O)[C@@]2(C)[C@H]([C@H](OC(=O)c3ccccc3)[C@]3(O)C[C@H](OC(=O)[C@H](O)[C@@H](NC(=O)c4ccccc4)c4ccccc4)C(C)=C1C3(C)C)[C@]1(OC(C)=O)CO[C@@H]1C[C@@H]2O | 91.6
COc1cc(OC)cc(-c2ccc3c(-c4ccc(F)cc4)n[nH]c3n2)c1 | 97.1
CNCCC=C1c2ccccc2CCc2ccccc21 | 102
CC(C)(C)c1[nH]cnc1/C=c1\[nH]c(=O)/c(=C/c2ccccc2)[nH]c1=O | 32.7

Form: compound = Nc1ccc(S(=O)(=O)NC(=O)c2ccccc2)cc1 [sulfabenzamide] ; cell viability = 92.1

Nc1cc(-c2ccncc2)c[nH]c1=O yielded cell viability of 86.6

Please fill in: cell viability reported for CCCCCCCCCCCCCCCCCCO = 102

Reported cell viability ( CC(=N)NCc1cccc(CN)c1 [1400W] ) = 99.9

Input COc1ccc2c(c1)c(C1=C(c3c[nH]c4ccccc34)C(=O)NC1=O)cn2CCCN(C)C . Output cell viability: 97.7

Entry CCOc1cc(/C=C2/C(=O)N(c3ccccc3)N=C2C)cc(Cl)c1OCC(=O)OC , cell viability reported as 103

Briefly, cell viability measured for Cc1csc(S(=O)(=O)N(CC(C)C)c2cc3c(cc2OCc2ccc(C(=O)O)cc2)CCC3)n1 : 99.3

// CC1(C)CC[C@]2(C(=O)O)CC[C@]3(C)[C@H](C(=O)C=C4[C@@]5(C)C=C(C#N)C(=O)C(C)(C)[C@@H]5CC[C@]43C)[C@@H]2C1 : cell viability value = 111
